Data credit: patent US20180355059A1

MEASURED ON: T1, recombinant human PCSK9 protein, His-tagged (Immunogen A, hPCSK9-His) (human, UniProt Q8NBP7 31-692, limits assumed, biotin-labelled in the ELISA and blocking assays (Biotin labeling kit))
T1 construct: also called human PCSK9-His; recombinant hPCSK9-His; not shown: His tag
PROTOCOL: ELISA, biotin-hPCSK9-His on streptavidin plate; antibody 0.067 nM
RECORDED ENDPOINT: OD450 nm (OD450 nm)
Give a bare numeral; the unit OD450 nm is implied.

Check out these entries, answers already filled in.
BINDER	RECORDED ENDPOINT	MEASUREMENT
103C11E8, chimeric anti-PCSK9 mAb purified from hybridoma (antibody, V domains shown, From Harbour H2L2 mice: human variable regions, rat constant regions) VH: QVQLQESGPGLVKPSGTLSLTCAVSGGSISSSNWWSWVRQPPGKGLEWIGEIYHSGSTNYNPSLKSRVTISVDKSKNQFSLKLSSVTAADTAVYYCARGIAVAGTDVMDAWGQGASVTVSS VL: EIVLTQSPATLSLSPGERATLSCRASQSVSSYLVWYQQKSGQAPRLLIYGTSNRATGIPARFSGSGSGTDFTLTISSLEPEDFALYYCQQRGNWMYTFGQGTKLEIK	OD450 nm	0.68
76A1B11, chimeric anti-PCSK9 mAb purified from hybridoma (antibody, V domains shown, From Harbour H2L2 mice: human variable regions, rat constant regions) VH: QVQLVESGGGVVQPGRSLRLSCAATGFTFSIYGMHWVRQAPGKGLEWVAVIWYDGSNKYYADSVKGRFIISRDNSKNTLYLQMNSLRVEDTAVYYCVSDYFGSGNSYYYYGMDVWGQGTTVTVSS VL: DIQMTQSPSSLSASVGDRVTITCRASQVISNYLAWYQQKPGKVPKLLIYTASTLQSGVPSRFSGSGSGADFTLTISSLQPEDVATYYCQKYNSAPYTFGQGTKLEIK	OD450 nm	0.86
152G2F7, chimeric anti-PCSK9 mAb purified from hybridoma (antibody, V domains shown, From Harbour H2L2 mice: human variable regions, rat constant regions) VH: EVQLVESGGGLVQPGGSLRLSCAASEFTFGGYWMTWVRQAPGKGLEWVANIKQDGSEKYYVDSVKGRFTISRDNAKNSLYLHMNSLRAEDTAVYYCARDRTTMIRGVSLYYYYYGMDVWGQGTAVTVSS VL: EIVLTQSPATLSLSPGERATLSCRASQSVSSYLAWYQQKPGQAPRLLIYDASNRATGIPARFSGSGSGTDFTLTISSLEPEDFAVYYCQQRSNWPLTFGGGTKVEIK	OD450 nm	0.6

Let us move to another entry and its OD450 nm.
Requested read-out: OD450 nm. Entry: 139G1C5, chimeric anti-PCSK9 mAb purified from hybridoma (antibody, V domains shown, From Harbour H2L2 mice: human variable regions, rat constant regions) VH: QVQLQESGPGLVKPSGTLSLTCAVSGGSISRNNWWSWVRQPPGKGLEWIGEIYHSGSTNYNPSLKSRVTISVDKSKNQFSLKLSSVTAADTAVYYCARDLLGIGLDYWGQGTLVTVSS VL: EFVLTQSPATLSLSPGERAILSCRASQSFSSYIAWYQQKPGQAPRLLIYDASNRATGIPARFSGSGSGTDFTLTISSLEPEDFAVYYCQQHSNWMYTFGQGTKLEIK
1.55
